Target: human MASP-2 (human, UniProt O00187 16-686)
Sequence (O00187 16-686): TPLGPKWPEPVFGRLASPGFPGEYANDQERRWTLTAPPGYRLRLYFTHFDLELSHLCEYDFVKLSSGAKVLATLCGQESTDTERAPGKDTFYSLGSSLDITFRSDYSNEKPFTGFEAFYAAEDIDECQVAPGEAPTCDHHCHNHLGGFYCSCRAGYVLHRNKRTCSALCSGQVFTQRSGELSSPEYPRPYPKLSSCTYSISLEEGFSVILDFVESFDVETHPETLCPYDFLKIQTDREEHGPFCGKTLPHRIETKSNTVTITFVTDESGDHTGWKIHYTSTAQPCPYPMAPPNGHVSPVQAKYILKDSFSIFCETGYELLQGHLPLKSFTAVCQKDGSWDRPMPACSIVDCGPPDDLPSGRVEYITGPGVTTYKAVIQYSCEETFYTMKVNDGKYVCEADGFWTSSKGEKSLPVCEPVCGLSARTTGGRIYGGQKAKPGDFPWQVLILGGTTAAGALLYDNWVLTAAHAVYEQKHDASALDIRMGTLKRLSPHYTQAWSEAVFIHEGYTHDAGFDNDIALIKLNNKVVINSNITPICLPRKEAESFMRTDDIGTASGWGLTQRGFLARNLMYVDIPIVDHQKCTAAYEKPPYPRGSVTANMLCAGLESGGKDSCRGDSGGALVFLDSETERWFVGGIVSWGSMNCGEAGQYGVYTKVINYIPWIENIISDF
Experiment: cell-based or functional assay
The entries below come with measured C3 convertase assay using 1% human serum, IC50 (first experiment) values attached.
Give the number; nM is assumed, so skip it.

Solved entries:
BINDER: scFv mother clone 18L16 (scFv) scFv: QVTLKESGPVLVKPTETLTLTCTVSGFSLSNARMGVSWIRQPPGKALEWLAHIFSNDEKSYSTSLKSRLTISKDTSKSQVVLTMTNMDPVDTATYYCARMAILTAGGMDVWGQGTTVTVSSKLSGSASAPKLEEGEFSEARVSYVLTQPPSVSASPGQTASITCSGDKLGDKYVSWYQQKPGRSPVLVIYRDTKRPSGIPERFSGSNYGNTATLTISGTQAVDEADYYCQAWDSGSGVFGGGTKVTVLAAAGSEQKLISEEDLNSHHHHHH
MEASURED_RESULT: 160

BINDER: 17D20 mother clone, wild type IgG4 format (antibody, V domains shown) VH: QVTLKESGPVLVKPTETLTLTCTVSGFSLSRGKMGVSWIRQPPGKALEWLAHIFSSDEKSYRTSLKSRLTISKDTSKNQVVLTMTNMDPVDTATYYCARIRAGGIDYWGQGTLVTVSS VL: QPVLTQPPSVSVSPGQTASITCSGDKLGDKFAYWYQQKPGHSPVLVIYQDNKRPSGIPGRFSGSNSGNTATLTISGTQAMDEADYYCQAWDSSTAVFGTGTKVTVLA
MEASURED_RESULT: 7.39

BINDER: scFv mother clone 17N16 (scFv, also called 17N16mc; 17N16m) scFv: QVQLQQSGPGLVKPSQTLSLTCAISGDSVSSTSAAWNWIRQSPSRGLEWLGRTYYRSKWYNDYAVSVKSRITINPDTSKNQFSLQLNSVTPEDTAVYYCARDPFGVPFDIWGQGTMVTVSSKLSGSASAPKLEEGEFSEARVSYVLTQPPSVSVAPGQTARITCGGNNIGSKNVHWYQQKPGQAPVLVVYDDSDRPSGIPERFSGSNSGNTATLTVSRVEAGDEADYYCQVWDTTTDHVVFGGGTKLTVLAAAGSEQKLISEEDLNSHHHHHH
MEASURED_RESULT: 36.2

BINDER: 17D20 mother clone, F(ab′)2 format (Fab, V domains shown, also called 17D20 F(ab′)2) VH: QVTLKESGPVLVKPTETLTLTCTVSGFSLSRGKMGVSWIRQPPGKALEWLAHIFSSDEKSYRTSLKSRLTISKDTSKNQVVLTMTNMDPVDTATYYCARIRAGGIDYWGQGTLVTVSS VL: QPVLTQPPSVSVSPGQTASITCSGDKLGDKFAYWYQQKPGHSPVLVIYQDNKRPSGIPGRFSGSNSGNTATLTISGTQAMDEADYYCQAWDSSTAVFGTGTKVTVLA
MEASURED_RESULT: 7.3

BINDER: 18L16 mother clone, wild type IgG4 format (antibody, V domains shown) VH: QVTLKESGPVLVKPTETLTLTCTVSGFSLSNARMGVSWIRQPPGKALEWLAHIFSNDEKSYSTSLKSRLTISKDTSKSQVVLTMTNMDPVDTATYYCARMAILTAGGMDVWGQGTTVTVS VL: LTQPPSVSASPGQTASITCSGDKLGDKYVSWYQQKPGRSPVLVIYRDTKRPSGIPERFSGSNYGNTATLTISGTQAVDEADYYCQAWDSGSGVFGGGTKVTVLA
MEASURED_RESULT: 33.9

GET /value?item= scFv mother clone 17D20 (scFv, also called 17D20 (17P10); 17D20mc) scFv: QVTLKESGPVLVKPTETLTLTCTVSGFSLSRGKMGVSWIRQPPGKALEWLAHIFSSDEKSYRTSLKSRLTISKDTSKNQVVLTMTNMDPVDTATYYCARIRAGGIDYWGQGTLVTVSSKLSGSASAPKLEEGEFSEARVQPVLTQPPSVSVSPGQTASITCSGDKLGDKFAYWYQQKPGHSPVLVIYQDNKRPSGIPGRFSGSNSGNTATLTISGTQAMDEADYYCQAWDSSTAVFGTGTKVTVLAAAGSEQKLISEEDLNSHHHHHH &field=C3 convertase assay using 1% human serum, IC50 (first experiment) returns 98.3

GET /value?item= 17N16 mother clone, wild type IgG4 format (antibody, V domains shown) VH: QVQLQQSGPGLVKPSQTLSLTCAISGDSVSSTSAAWNWIRQSPSRGLEWLGRTYYRSKWYNDYAVSVKSRITINPDTSKNQFSLQLNSVTPEDTAVYYCARDPFGVPFDIWGQGTMVTVSS VL: SYVLTQPPSVSVAPGQTARITCGGNNIGSKNVHWYQQKPGQAPVLVVYDDSDRPSGIPERFSGSNSGNTATLTVSRVEAGDEADYYCQVWDTTTDHVVFGGGTKLTVL &field=C3 convertase assay using 1% human serum, IC50 (first experiment) returns 5.45

Source of measurements: patent US20170088632A1
